Hey, just so you know, these numbers are from ChEMBL document CHEMBL3400025.

Could you please report measured pIC50 for the items listed next?
Tested on: HT-29
Assay: Antiproliferative activity against human HT-29 cells assessed as inhibition of cell growth after 48 hrs by MTT assay
Format: functional, cell-based
Conditions: HT-29, 48 h
pIC50: −log10 of the molar value.

• C[C@]12CCC(=O)C(O)=C1CC[C@@H]1[C@@H]2CC[C@]2(C)C(=O)CC[C@@H]12 [FORMESTANE] = < 4.00
• C[C@]12CCC(=O)C=C1CC[C@@H]1[C@@H]2CC[C@]2(C)/C(=C/c3ccccn3)CC[C@@H]12 = < 4.00
• COc1cccc2c1C(=O)c1c(O)c3c(c(O)c1C2=O)C[C@@](O)(C(=O)CO)C[C@@H]3O[C@H]1C[C@H](N)[C@H](O)[C@H](C)O1 [DOXORUBICIN] = 5.10
• C[C@]12C/C(=N\O)C(=O)c3noc(c31)C[C@@H]1[C@@H]2CC[C@@]2(C)[C@H]1CC[C@@]2(O)Cc1ccccn1 = < 4.00
• C[C@]12CCNC(=O)C=C1CC[C@@H]1[C@@H]2CC[C@]2(C)/C(=C/c3ccccn3)CC[C@@H]12 = < 4.00
• C[C@]12CC[C@H](O)CC1=CC[C@@H]1[C@@H]2CC[C@@]2(C)[C@H]1CC[C@@]2(O)Cc1ccccn1 = 4.32

Turning now to a further record.
# input For the record C[C@]12C/C(=N/O)C(=O)C=C1CC[C@@H]1[C@@H]2CC[C@@]2(C)[C@H]1CC[C@@]2(O)Cc1ccccn1 , what value of pIC50 is listed for HT-29?
# output < 4.00
